The measurements presented in this section are drawn from patent US20130288983A1.

system_under_test: T1, Activin A (Homo sapiens (Human), UniProt P08476 311-426)
T1 sequence: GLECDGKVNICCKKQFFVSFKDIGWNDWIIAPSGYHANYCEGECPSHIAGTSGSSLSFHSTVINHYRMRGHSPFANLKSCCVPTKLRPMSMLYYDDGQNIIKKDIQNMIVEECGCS
protocol_text: Biacore SPR grade, CHO stable conditioned media, 20 nM activin A
Experimental: Qualitative BIAcore® Assay. E28 and R40 were substituted respectively with other natural amino acids in fusions with IgG1 Fc as described above. […] Relative binding affinity for activin was also determined by Biacore measurements using conditioned media obtained from mammalian cell expression. Activin A (20 nM) was used to capture soluble receptor polypeptide in the conditioned media and measured SPR signals were normalized. […]

binder	Normalized SPR
ActRIIB5-IgG1 Fc R40A, linker GGGGS (Fc fusion, Tested from conditioned media) SGRGEAETRECIYYNANWELEATNQSGLERCEGEQDKRLHCYASWRNSSGTIELVKKGCWLDDFNCYDRQECVATEENPQVYFCCCEGNFCNERFTHLPEAGGPEGPWASTTIPSGGPEATAAAGDQGSGALWLCLEGPAHEGGGGSAPELLGGPSVFLFPPKPKDILMISRTPEVTCVVVDVSHEDPEVKFNWYVGGVEVHNAKTKPREEQYNSTYRVVSVLTVLHQDWLNGKEYKCKVSNKALPAPIEKTISKAKGQPREPQVYTLPPSRDELTKNQVSLTCLVKGFYPSDIAVEWESNGQPENNYKTTPPVLDSDGSFFLYSKLTVDKSRWQQGNVFSCSVMHEALHNHYTQKSLSLSPGK	20 to 40 ru
